Experiment: Binding affinity to gamma (312-324) epitope of human fibrinogen measured at flow rate of 30 ul/min by Biacore X system
Peptide text beside a SMILES is read from it.
Answer each item with its documented pKd.
Please express pKd as -log10 of the molar concentration.

The measured pKd associated with NCCCC[C@H](NC(=O)[C@H](CCC(=O)O)NC(=O)[C@@H](N)CCCCN)C(N)=O (H-Lys-Glu-Lys-NH2) reads 4.82

Value of measured pKd for the entry N=C(N)NCCC[C@H](NC(=O)[C@H](CC(=O)O)NC(=O)[C@@H](N)CCCCN)C(N)=O (H-Lys-Asp-Arg-NH2) : 4.79

For N=C(N)NCCC[C@H](NC(=O)[C@H](CCC(=O)O)NC(=O)[C@@H](N)CCCCN)C(N)=O (H-Lys-Glu-Arg-NH2) the compound record lists pKd as 4.66

----------
Assay: Binding affinity to gamma (312-324) epitope of human fibrinogen measured at flow rate of 5 ul/min by Biacore X system
Peptide text beside a SMILES is read from it.
Kindly state pKd for each of the entries shown.
Scale: negative log10 of molar concentration, which is what pKd denotes.

Documented pKd of N=C(N)NCCC[C@H](NC(=O)[C@H](CC(=O)O)NC(=O)[C@@H](N)CCCCN)C(N)=O (H-Lys-Asp-Arg-NH2) : 4.28

According to the records, this compound N=C(N)NCCC[C@H](NC(=O)[C@H](CCC(=O)O)NC(=O)[C@@H](N)CCCCN)C(N)=O (H-Lys-Glu-Arg-NH2) displays pKd of 4.89

For record NCCCC[C@H](NC(=O)[C@H](CCC(=O)O)NC(=O)[C@@H](N)CCCCN)C(N)=O (H-Lys-Glu-Lys-NH2) the listed pKd is 4.46

From: ChEMBL document CHEMBL1137745
